- Test system: 817829-284-R-J1-PDC complex spheroid viability
- test summary: Anticancer human tumor 817829-284-R-J1-PDC patient-derived colon adenocarcinoma cell line growth inhibition [POLQ]; active = viability on the fitted dose curve at most 10% of control; inactive = the rest
- condition: second compound 0.316 µM; first compound 0.316 µM
The reply should be one of these categories: active, inactive

compound="CC1COCCN1c1cc(C2(O)CC3CCC(C2)O3)c2cnn(-c3ccn[nH]3)c2n1 (stereo unspecified) + Cc1cccc(N(C)C(=O)C2C(O)CCN2c2nc(C)cc(C(F)(F)F)c2C#N)c1" classification=active
compound="Nc1ccn(C2OC(CO)C(O)C2(F)F)c(=O)n1 (stereo unspecified) + COC1C(OC(N)=O)C(O)C(Oc2ccc3c(O)c(NC(=O)c4ccc(O)c(CC=C(C)C)c4)c(=O)oc3c2C)OC1(C)C" classification=active

Query compound follows.
So what was the verdict on O=c1[nH]cc(F)c(=O)[nH]1 + COC1C(OC(N)=O)C(O)C(Oc2ccc3c(O)c(NC(=O)c4ccc(O)c(CC=C(C)C)c4)c(=O)oc3c2C)OC1(C)C in this test?
inactive

----------
compounds and their reported pIC50
- System: 817829-284-R-J1-PDC complex spheroid viability
- test summary: Anticancer human tumor 817829-284-R-J1-PDC cell line growth inhibition [POLQ];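 note: spheroids exposed to compounds for 7 days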
- condition: curve of first compound; second compound 0.316 µM
As a rule, pIC50 stands for the negative log10 of the concentration, concentration in M.

compound="CCc1cc2c(N3CCc4c(cc(Cn5ccnc5)cc4-c4cn(C)nc4C(F)(F)F)C3=O)ccnc2c(OC)n1 + Nc1ccc(C#CCN(C(=O)Cc2ncc(C(F)(F)F)cc2C(F)(F)F)c2ccc(F)cc2)nn1" numeric_result=5.58

Now for another entry.
The recorded pIC50 for entry CCc1cc2c(N3CCc4c(cc(Cn5ccnc5)cc4-c4cn(C)nc4C(F)(F)F)C3=O)cc(C)nc2c(OC)n1 + COC1C(OC(N)=O)C(O)C(Oc2ccc3c(O)c(NC(=O)c4ccc(O)c(CC=C(C)C)c4)c(=O)oc3c2C)OC1(C)C equals 5.71

----------
- Tested on: 817829-284-R-J1-PDC complex spheroid viability
- test summary: Anticancer human tumor 817829-284-R-J1-PDC cell line growth inhibition [POLQ];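 note: spheroids exposed to compounds for 7 days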;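 for viability, T/C: 100% = DMSO vehicle-treated spheroids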
- condition: second compound 10 µM; first compound 0.00316 µM; stronger effect = lower value
quantity name: viability, T/C (%)
Numbers only; they are read as %.

compound="C=CCn1c(=O)c2cnc(Nc3ccc(N4CCN(C)CC4)cc3)nc2n1-c1cccc(C(C)(C)O)n1 + COC1C(OC(N)=O)C(O)C(Oc2ccc3c(O)c(NC(=O)c4ccc(O)c(CC=C(C)C)c4)c(=O)oc3c2C)OC1(C)C" numeric_result=67.5
compound="Cn1ncnc1[C@H]1c2n[nH]c(=O)c3cc(F)cc(c23)N[C@@H]1c1ccc(F)cc1 + Nc1ccc(C#CCN(C(=O)Cc2ncc(C(F)(F)F)cc2C(F)(F)F)c2ccc(F)cc2)nn1" numeric_result=80.5
compound="CCc1c2c(nc3ccc(O)cc13)-c1cc3c(c(=O)n1C2)COC(=O)[C@]3(O)CC + Nc1ccc(C#CCN(C(=O)Cc2ncc(C(F)(F)F)cc2C(F)(F)F)c2ccc(F)cc2)nn1" numeric_result=21.7
compound="COc1cccc(OCCCN)c1-c1cc(Nc2cnc(C#N)cn2)n[nH]1 + Nc1ccc(C#CCN(C(=O)Cc2ncc(C(F)(F)F)cc2C(F)(F)F)c2ccc(F)cc2)nn1" numeric_result=87.2

Now for another entry.
The recorded viability, T/C for entry Cn1ncnc1[C@H]1c2n[nH]c(=O)c3cc(F)cc(c23)N[C@@H]1c1ccc(F)cc1 + Cc1cccc(N(C)C(=O)C2C(O)CCN2c2nc(C)cc(C(F)(F)F)c2C#N)c1 equals 54.8
